The reported numbers originate from patent US20260207798A1.

# assayTarget: human Granzyme B (human, UniProt P10144 21-247)
# Sequence (P10144 21-247 limits assumed): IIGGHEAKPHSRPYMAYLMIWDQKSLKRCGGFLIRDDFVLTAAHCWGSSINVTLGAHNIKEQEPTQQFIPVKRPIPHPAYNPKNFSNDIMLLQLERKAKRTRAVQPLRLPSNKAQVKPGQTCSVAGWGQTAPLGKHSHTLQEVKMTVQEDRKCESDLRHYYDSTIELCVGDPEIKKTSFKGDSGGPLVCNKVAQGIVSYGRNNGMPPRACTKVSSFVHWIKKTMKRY
# testSummary: cell-based or functional assay
Bridge positions count the residues as written; N and C are the ends.
experimentalEndpoint: Human Granzyme B IC50 (fluorogenic substrate enzyme inhibition assay)

Problem: If you can, please state the reported Human Granzyme B IC50 (fluorogenic substrate enzyme inhibition assay) value of {CH2CO}-FNFEDQSPDTWQPCG-NH2 (thioether N-14; SMILES C[C@@H](O)[C@@H]1NC(=O)[C@H](CC(=O)O)NC(=O)[C@@H]2CCCN2C(=O)[C@H](CO)NC(=O)[C@H](CCC(N)=O)NC(=O)[C@H](CC(=O)O)NC(=O)[C@H](CCC(=O)O)NC(=O)[C@H](Cc2ccccc2)NC(=O)[C@H](CC(N)=O)NC(=O)[C@H](Cc2ccccc2)NC(=O)CSC[C@@H](C(=O)NCC(N)=O)NC(=O)[C@@H]2CCCN2C(=O)[C@H](CCC(N)=O)NC(=O)[C@H](Cc2c[nH]c3ccccc23)NC1=O) [Compound 25a] .
Result: < 8 nM
